Provenance of the data: paper PMC12131194

# TARGET_DESC: h NaV1.5 (Homo sapiens, UniProt Q14524, R1027Q)
# Construct: expressed in transfected cells; host or cells: Xenopus laevis oocytes injected with cRNA
# Sequence (Q14524 whole entry R1027Q): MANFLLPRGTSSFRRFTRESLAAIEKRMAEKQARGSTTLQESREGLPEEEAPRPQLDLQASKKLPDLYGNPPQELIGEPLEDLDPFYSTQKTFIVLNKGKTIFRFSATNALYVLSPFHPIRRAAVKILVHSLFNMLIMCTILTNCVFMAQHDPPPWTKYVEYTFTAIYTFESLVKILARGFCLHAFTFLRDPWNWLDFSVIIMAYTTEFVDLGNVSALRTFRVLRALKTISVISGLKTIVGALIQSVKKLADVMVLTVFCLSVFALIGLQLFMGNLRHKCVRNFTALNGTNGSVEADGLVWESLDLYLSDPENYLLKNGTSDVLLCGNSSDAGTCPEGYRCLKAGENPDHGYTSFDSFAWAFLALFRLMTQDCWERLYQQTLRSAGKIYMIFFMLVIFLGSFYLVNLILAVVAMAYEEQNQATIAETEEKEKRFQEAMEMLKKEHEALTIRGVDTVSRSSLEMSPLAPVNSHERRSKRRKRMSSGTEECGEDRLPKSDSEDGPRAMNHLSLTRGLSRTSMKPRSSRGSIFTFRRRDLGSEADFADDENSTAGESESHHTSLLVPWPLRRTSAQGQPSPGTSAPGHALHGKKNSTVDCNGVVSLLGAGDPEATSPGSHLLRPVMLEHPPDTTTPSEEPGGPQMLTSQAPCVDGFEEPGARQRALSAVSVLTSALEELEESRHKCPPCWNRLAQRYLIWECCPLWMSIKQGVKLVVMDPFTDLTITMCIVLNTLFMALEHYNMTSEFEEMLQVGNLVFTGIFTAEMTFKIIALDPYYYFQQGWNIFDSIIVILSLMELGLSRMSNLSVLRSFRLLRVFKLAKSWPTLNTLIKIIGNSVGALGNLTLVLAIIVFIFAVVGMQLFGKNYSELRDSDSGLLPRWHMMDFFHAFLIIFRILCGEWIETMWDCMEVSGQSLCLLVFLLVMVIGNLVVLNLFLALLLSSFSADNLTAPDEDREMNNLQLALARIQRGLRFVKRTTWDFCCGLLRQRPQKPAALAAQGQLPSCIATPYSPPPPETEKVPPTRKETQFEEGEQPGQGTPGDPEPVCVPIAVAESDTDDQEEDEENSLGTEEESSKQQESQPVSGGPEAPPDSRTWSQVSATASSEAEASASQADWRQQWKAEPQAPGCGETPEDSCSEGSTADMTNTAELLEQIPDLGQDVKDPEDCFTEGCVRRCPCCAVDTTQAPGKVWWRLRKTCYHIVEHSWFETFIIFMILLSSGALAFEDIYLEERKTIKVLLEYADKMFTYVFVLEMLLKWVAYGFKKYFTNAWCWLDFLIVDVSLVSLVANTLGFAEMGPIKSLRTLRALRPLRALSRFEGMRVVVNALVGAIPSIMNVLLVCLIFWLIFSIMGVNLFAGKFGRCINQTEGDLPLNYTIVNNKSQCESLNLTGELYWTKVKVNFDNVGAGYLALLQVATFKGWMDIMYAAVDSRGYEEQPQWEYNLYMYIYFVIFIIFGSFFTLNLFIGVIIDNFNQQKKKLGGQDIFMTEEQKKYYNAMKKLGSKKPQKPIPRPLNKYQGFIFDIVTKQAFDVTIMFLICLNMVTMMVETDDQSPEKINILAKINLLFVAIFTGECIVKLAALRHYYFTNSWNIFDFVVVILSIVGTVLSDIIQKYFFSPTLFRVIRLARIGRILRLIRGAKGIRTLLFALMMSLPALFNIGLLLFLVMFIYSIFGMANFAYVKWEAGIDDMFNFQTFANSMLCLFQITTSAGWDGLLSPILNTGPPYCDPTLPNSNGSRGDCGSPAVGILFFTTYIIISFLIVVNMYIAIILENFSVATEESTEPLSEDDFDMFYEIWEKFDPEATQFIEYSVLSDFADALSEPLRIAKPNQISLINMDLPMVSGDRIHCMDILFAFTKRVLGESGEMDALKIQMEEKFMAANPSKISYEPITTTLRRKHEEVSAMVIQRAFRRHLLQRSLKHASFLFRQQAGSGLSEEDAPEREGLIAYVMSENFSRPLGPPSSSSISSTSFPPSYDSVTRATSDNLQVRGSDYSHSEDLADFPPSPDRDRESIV
# PROTOCOL: TEVC recordings in X. laevis oocytes, NaV1.5
# Type: cell-based
# REPORTED_CONDITIONS: 100 μM, −30 mV, oocytes, mean ± SD
QUANTITY_MEASURED: inhibition at 100 µM (%)

>>> endpoint_value("CCCCN(CCCC)CC(=O)Nc1ccc(OC)cc1OC")
62.4
>>> endpoint_value("CCCCN(CCCC)C(C)C(=O)Nc1ccccc1C (centres unmarked) [Compound 7b, 2-(dibutylamine)-N-(o-tolyl)propanamide]")
58.9
>>> endpoint_value("CCCCN(CCCC)C(C)C(=O)Nc1ccc(OC)cc1 (centres unmarked)")
11.9
>>> endpoint_value("CCCCN(CCCC)CC(=O)Nc1ccc(OC)cc1")
81.2
>>> endpoint_value("CCCCN(CCCC)C(C)C(=O)Nc1cccc2ccccc12 (centres unmarked)")
31.1
